# Test system: U251 cells
# assay.notes: Boyden chamber invasion assay
# Type: cell-based, human
# test.context: Boyden chamber; limits 49-150; read-out: predicted IC50, U251 cell invasiveness
measured.quantity: IC50 (nM)
Could you give me the number in nM? Just the number is fine.

Prompt line: What value of IC50 has been recorded for this entry: CCCCCc1cc(O)c2c(c1)OC(C)(C)[C@@H]1CCC(C)=C[C@@H]21 [THC, Δ^9-tetrahydrocannabinol]
Response line: 85

----------
Listed here: items and their measured IC50.
# System: SF126 cells
# assay.notes: MTT cell proliferation assay
# test.context: read-out: IC50, SF126; three day treatment; Table 3
Quick note: give the figure in nM, leave out the unit.

# molecule, number
measured = [
    ("CCCCCc1cc(O)c2c(c1)OC(C)(C)[C@@H]1CCC(C)=C[C@@H]21 [THC, Δ^9-tetrahydrocannabinol]", 2500),
]

Okay, next one:
Prompt line: # query: IC50 of entry Cc1c(C(=O)c2cccc3ccccc23)c2cccc3c2n1[C@H](CN1CCOCC1)CO3
Response line: 1300
